Values from paper PMC5540273

# Test system: PKMYT1
# SETUP CONDITIONS: concentration: 1 μM, replicates: in singlicate; n = 1
Examples of compounds with documented %Inh follow.
Write the number in % without appending the unit.

Below, 3 compounds whose answers are already recorded.
>>> test_result("CN1C(=O)C(Nc2ccc(Cl)c(C(=O)O)c2)=C(c2ccc(Cl)cc2)C1=O")
0
>>> test_result("Fc1cc(Cl)ccc1Nc1ccnc2cc(-c3ccc(CN4CCCCC4)o3)ccc12")
0
>>> test_result("O=C(Nc1n[nH]c2nc(-c3nccs3)c(Br)cc12)C1CC1")
3

Alright, here's another compound for you.
Query (compound): O=c1cc(N2CCOCC2)nc2n(Cc3cccc(Cl)c3Cl)ccn12 ; field requested: %Inh
2

====

Examples of compounds with documented %Inh follow.
# Test system: ITK
# SETUP CONDITIONS: concentration: 1 μM, replicates: in singlicate; n = 1
Answer shape: numeric part, then the unit.

>>> test_result("O=C(Nc1n[nH]c2nc(-c3nccs3)c(Br)cc12)C1CCCC1 [SB-742609]")
"24%"
>>> test_result("COc1cc2ncn(-c3cc(OCC4CCCO4)c(C(N)=O)s3)c2cc1OC (stereo not drawn) [GSK204607]")
"5%"
>>> test_result("COc1ccccc1-c1ccc2c(NC(=O)C3CC3)n[nH]c2n1 [SB-711239]")
"0%"
>>> test_result("CS(=O)(=O)c1ccc(-c2c(-c3ncn[nH]3)sc(N3CCOCC3)c2C#N)cc1")
"6%"
>>> test_result("CCCc1ccc(S(=O)(=O)NC2CCN(c3ccnc(Nc4ccc(F)cc4)n3)C2)cc1 (stereo not drawn) [GSK1379715]")
"6%"

Query (compound): O=S(=O)(c1ccc(-c2ccnc3[nH]ccc23)cc1)N1CCCC1 [GSK846226] ; field requested: %Inh
10%

Query (compound): Cc1ccccc1-n1cnc2c(N)ncnc21 [SKF-97510] ; field requested: %Inh
1%

Query (compound): CC(=O)Nc1nc2cnc(Nc3cc(NC(=O)c4cccc(CCC#N)c4)ccc3C)nc2s1 ; field requested: %Inh
3%

Query (compound): Cc1cc(-c2ccc3c(c2)CC[C@@H](N[C@@H](C)c2ccccc2)C3)cnc1N.Cl [GW412617] ; field requested: %Inh
18%

====

# Test system: DCAMKL3
# Construct: gene DCLK3
# SETUP CONDITIONS: concentration: 1 μM, replicates: in singlicate; n = 1
READOUT KIND: %Inh (%)
Write the number in % without appending the unit.

Can you look up %Inh on DCAMKL3 for Cc1cc(-c2ccc3c(c2)CC[C@@H](N[C@@H](C)c2ccccc2)C3)cnc1N.Cl [GW412617] ?
0

====

# Test system: STK36
READOUT KIND: pKd
Would you please state pKd, meaning minus log10 of the concentration in mol/L, as a bare number?

Query (molecule): Cl.O=C(Nc1cccc(-c2nn3ncccc3c2-c2ccnc(Nc3cccnc3)n2)c1)c1c(F)cccc1F ; field requested: pKd
7.01

====

# Test system: ERBB4
# SETUP CONDITIONS: concentration: 1 μM, replicates: in singlicate; n = 1
Examples of molecules with documented %Inh follow.
Write the number in % without appending the unit.

>>> test_result("COc1ccc(CNC(=O)NC2CCN(c3ccnc(Nc4cc(OC)c(OC)c(OC)c4)n3)C2)cc1 (stereo not drawn)")
9
>>> test_result("COc1ccc2nc(-c3cccc(C)n3)nc(Nc3ccncc3)c2c1")
30
>>> test_result("COc1ccc(Nc2nccc(-c3cccc(NC(=O)c4cc5cc(F)ccc5[nH]4)c3)n2)cc1")
34
>>> test_result("O=C(Nc1n[nH]c2nc(-c3nccs3)c(Br)cc12)C1CC1")
0
>>> test_result("COc1cc2nccc(Nc3ccc(NC(=O)c4ccc(C)cc4)c(O)c3)c2cc1OC.Cl")
9

Alright, here's another molecule for you.
Query (molecule): Fc1cc(Cl)ccc1Nc1ccnc2cc(-c3ccc(CN4CCCCC4)o3)ccc12 ; field requested: %Inh
4

====

# System: PKMYT1
# SETUP CONDITIONS: concentration: 1 μM, replicates: in singlicate; n = 1
READOUT KIND: %Inh

Below, 3 compounds whose answers are already recorded.
>>> test_result("CS(=O)(=O)c1ccc(-c2nc3n(c2-c2ccncc2)CCC3)cc1")
"0%"
>>> test_result("Clc1cc(Cl)cc(Nc2ccnc(Nc3cc(Cl)cc(Cl)c3)n2)c1")
"8%"
>>> test_result("COC(=O)c1c(-c2ccccc2)c2cc(OC)ccc2c(=O)n1Cc1ccccc1")
"2%"

Query (compound): COc1cc2ncnc(Nc3ccc4nc(-c5ccccc5)[nH]c4c3)c2cc1OC.Cl ; field requested: %Inh
10%

Query (compound): Cn1ccc2ncnc(Oc3ccc(Nc4nc5ccccc5[nH]4)cc3)c21 ; field requested: %Inh
18%

Query (compound): Fc1cccc(COc2nnc(-c3ccc4c(c3)CCO4)o2)c1 ; field requested: %Inh
11%

Query (compound): COc1ccc2nc(-c3cccc(C)n3)nc(Nc3ccncc3)c2c1 ; field requested: %Inh
1%

Query (compound): Cc1cc(-c2ccc3c(c2)CC[C@@H](N[C@@H](C)c2ccccc2)C3)cnc1N.Cl ; field requested: %Inh
0%

Query (compound): CN(C)CCN(C)C(=O)c1cc(-c2ccncc2)c(-c2ccc(Cl)c(O)c2)o1.Cl.Cl ; field requested: %Inh
0%

====

Examples of molecules with documented pKd follow.
# System: ASK1
# Construct: gene MAP3K5
Would you please state pKd, meaning minus log10 of the concentration in mol/L, as a bare number?

>>> test_result("CC(C)(C)c1ccc(C(=O)Nc2cn3cc(Cl)ccc3n2)cc1")
5.82

Query (molecule): CC(C)(C)c1ccc(C(=O)Nc2cn3cc(-c4cccnc4)ccc3n2)cc1 ; field requested: pKd
7.19

====

# Tested on: PFTK1
# Construct: gene CDK14
# SETUP CONDITIONS: concentration: 1 μM, replicates: in singlicate; n = 1
Lab note - cut at 10% for %Inh: T if strictly below, F if not.

These solved cases illustrate the format of a correct answer.
>>> class("O=C(Nc1ccccc1)Nc1cccc(Oc2ccc3nccn3n2)c1")
"T"
>>> class("Cn1ccc2ncnc(Oc3cccc(C(=O)Nc4ccccc4)c3)c21")
"T"
>>> class("CC1=C(C(=O)Nc2cc3cn[nH]c3cc2F)C(c2ccc(C(F)(F)F)cc2)CC(=O)N1 (centres unmarked)")
"F"
>>> class("Cl.NC(=O)c1cccc(Nc2nccc(Nc3ccc(Oc4cccc(Cl)c4)c(Cl)c3)n2)c1")
"T"
>>> class("Cc1ccc(NC(=O)Nc2cc(C(C)(C)C)nn2-c2ccccc2)cc1")
"T"

Please let me know if Nc1ncnc2[nH]c(-c3ccccc3)nc12 shows %Inh below 10%.
F

Please let me know if CC(C)(C)c1ccc(C(=O)Nc2cn3cc(Cl)ccc3n2)cc1 shows %Inh below 10%.
T

Please let me know if CCCc1ccc(S(=O)(=O)NC2CCN(c3ccnc(Nc4ccc(F)cc4)n3)C2)cc1 (centres unmarked) shows %Inh below 10%.
T

Please let me know if COc1cc2nccc(Nc3ccc(NC(=O)c4ccc(C)cc4)c(O)c3)c2cc1OC.Cl shows %Inh below 10%.
F

Please let me know if Cc1cccc(-c2nc(C)cc(Nc3ccncc3)n2)n1 shows %Inh below 10%.
F

Please let me know if CC(C)(C)c1ccc(C(=O)Nc2cn3cc(-c4cccnc4)ccc3n2)cc1 shows %Inh below 10%.
F

====

# System: AXL
# SETUP CONDITIONS: concentration: 1 μM, replicates: in singlicate; n = 1
Examples of molecules with documented %Inh follow.
Answer shape: numeric part, then the unit.

>>> test_result("Cn1ccc2ncnc(Oc3ccc(NC(=O)Nc4ccccc4)cc3)c21")
"0%"
>>> test_result("COc1cccc(-c2cc(-c3c[nH]nc3-c3ccccn3)ccn2)c1")
"7%"
>>> test_result("Cc1csc(-c2nc(Nc3ccncc3)c3ccccc3n2)n1")
"0%"
>>> test_result("COc1ccccc1-c1ccc2c(NC(=O)C3CC3)n[nH]c2n1")
"12%"

Alright, here's another molecule for you.
Query (molecule): CN1C(=O)C(Nc2ccc(Cl)c(C(=O)O)c2)=C(c2ccc(Cl)cc2)C1=O ; field requested: %Inh
10%

====

# System: HPK1
# SETUP CONDITIONS: concentration: 1 μM, replicates: in singlicate; n = 1
Examples of molecules with documented %Inh follow.
Write the number in % without appending the unit.

>>> test_result("COc1cccc(NC(=O)NC2CCN(c3ccnc(Nc4ccc(F)cc4)n3)C2)c1 (stereo not drawn)")
59
>>> test_result("CN1C(=O)C(Nc2ccc(Cl)c(C(=O)O)c2)=C(c2ccc(Cl)cc2)C1=O")
0

Alright, here's another molecule for you.
Query (molecule): Fc1cccc(COc2nnc(-c3ccc4c(c3)CCO4)o2)c1 ; field requested: %Inh
0
